# tested-target: PKM2 (Homo sapiens, UniProt P14618)
# Sequence (P14618 whole entry): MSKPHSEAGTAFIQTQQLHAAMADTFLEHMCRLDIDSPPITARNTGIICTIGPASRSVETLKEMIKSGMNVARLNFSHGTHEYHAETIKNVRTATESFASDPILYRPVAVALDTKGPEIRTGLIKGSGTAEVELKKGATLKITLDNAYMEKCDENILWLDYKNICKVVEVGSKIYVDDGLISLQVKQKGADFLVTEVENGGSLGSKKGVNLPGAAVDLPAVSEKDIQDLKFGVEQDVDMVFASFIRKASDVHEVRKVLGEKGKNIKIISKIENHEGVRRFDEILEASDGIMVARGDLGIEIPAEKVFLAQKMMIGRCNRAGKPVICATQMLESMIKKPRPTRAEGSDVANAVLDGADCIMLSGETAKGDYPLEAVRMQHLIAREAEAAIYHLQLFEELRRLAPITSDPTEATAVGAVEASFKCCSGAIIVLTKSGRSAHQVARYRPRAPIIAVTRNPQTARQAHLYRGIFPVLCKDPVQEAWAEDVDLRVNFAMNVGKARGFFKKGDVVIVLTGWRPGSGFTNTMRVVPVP
# assay-notes: PKM2 activation biochemical assay (AC50 / max. response vs fructose 1,6-bisphosphate)
# experimental-conditions: biochemical assay; read-out: PKM2 AC50
Binarize AC50 at 0.2 µM; below is yes, at or above is no.

Answered examples (5):
| compound | qualitative-label |
| --- | --- |
| O=C(c1cc(C(F)(F)F)n[nH]1)N(CCC1CCS(=O)(=O)CC1)Cc1ccccc1Cl [Compound 78] | no |
| COCCCN(Cc1ccccc1F)C(=O)c1cc(C(F)(F)F)n[nH]1 [Compound 23] | no |
| CN(C)CCN(Cc1ccccc1Cl)C(=O)c1cc(C(F)(F)F)n[nH]1 [Compound 187] | no |
| O=C(c1cc(C(F)(F)F)n[nH]1)N(CCC1CCSCC1)Cc1ccccc1F [Compound 79] | no |
| Cc1sc2nc(Cn3cnc4ccccc43)cc(=O)n2c1C [PP14] | yes |

Prompt: A record lists Nc1cccc(Cl)c1CN(CCN1CCCC(F)C1)C(=O)c1cc(C(F)(F)F)n[nH]1 (centres unmarked) [Compound 236] . Is its AC50 below 0.2 µM?
Response: yes

Prompt: A record lists O=C(c1cc(C(F)(F)F)n[nH]1)N(CCN1CCCCC1)Cc1c(Cl)cccc1Cl [Compound 180] . Is its AC50 below 0.2 µM?
Response: yes

Prompt: A record lists CC[C@](C)(N)C(=O)Oc1ccc(CN(CC2CCC2)C(=O)c2cc(Cl)n[nH]2)c(F)c1 [Compound 115] . Is its AC50 below 0.2 µM?
Response: yes

---

# tested-target: PKM2 (Homo sapiens)
# assay-notes: PKM2 activation biochemical assay (AC50 / max. response vs fructose 1,6-bisphosphate)
# experimental-conditions: biochemical assay; read-out: PKM2 AC50
// AC50 lookup, one value per entry
Report the value in nM with no unit label.

// solved cases for AC50 follow
| molecule | tested-target | AC50 (nM) |
| --- | --- | --- |
| O=C(CCSC(=S)NCc1cccnc1)c1ccc([N+](=O)[O-])cc1 | PKM2 (Homo sapiens) | 2760 |
| Cc1ccc2nc(Cn3cnc4ccccc43)cc(=O)n2c1 | PKM2 (Homo sapiens) | 755 |
| O=C(c1cc(C(F)(F)F)n[nH]1)N(Cc1cccc(Cl)c1O)CC1CCC1 | PKM2 (Homo sapiens) | 6500 |
| O=c1cc(Cn2cnc3ccccc32)nc2ccc(Cl)cn12 | PKM2 (Homo sapiens) | 219 |
| CCOCCN(Cc1ccc(O)cc1F)C(=O)c1cc(C(F)(F)F)n[nH]1 | PKM2 (Homo sapiens) | 210 |
| CC(CN(Cc1c(N)cccc1Cl)C(=O)c1cc(C(F)(F)F)n[nH]1)N1CCCC1 (centres unmarked) | PKM2 (Homo sapiens) | 223 |

Briefly, AC50 measured for COc1cc(C(=O)CCSC(=S)NCc2cccnc2)cc(OC)c1OC : 10100

Briefly, AC50 measured for CN1CCN(CCN(Cc2ccccc2Cl)C(=O)c2cc(C(F)(F)F)n[nH]2)CC1 : 17000

Briefly, AC50 measured for CC1CCCCN1CCN(Cc1cc(N)ccc1Cl)C(=O)c1cc(C(F)(F)F)n[nH]1 (centres unmarked) : 395

Briefly, AC50 measured for CC(c1ccccc1)N(CC1CCC1)C(=O)c1cc(C(F)(F)F)n[nH]1 (centres unmarked) : 4650

Briefly, AC50 measured for O=C(c1cc(C(F)(F)F)n[nH]1)N(CCC1CCOC1)Cc1ccccc1F (centres unmarked) : 377

Briefly, AC50 measured for CCN1CCN(CCN(Cc2ccccc2F)C(=O)c2cc(C(F)(F)F)n[nH]2)CC1 : 6300

Briefly, AC50 measured for O=C(c1cc(C(F)(F)F)n[nH]1)N(Cc1ccc(O)cc1F)CC1COC1 : 150

Briefly, AC50 measured for NC1CC(N(Cc2ccccc2Cl)C(=O)c2cc(C(F)(F)F)n[nH]2)C1 (centres unmarked) : 12000

Briefly, AC50 measured for Nc1cccc(CN(CCN2CCCCCC2)C(=O)c2cc(C(F)(F)F)n[nH]2)c1F : 117

Briefly, AC50 measured for O=C(c1cc(C(F)(F)F)n[nH]1)N(CCN1CCCC1)Cc1c(Cl)cccc1Cl : 126

Briefly, AC50 measured for O=c1cc(Cn2cnc3ccccc32)nc2scc(-c3ccccc3)n12 : 1030

Briefly, AC50 measured for Cc1cn2c(=O)cc(Cn3cnc4ccccc43)nc2s1 : 466

Briefly, AC50 measured for CC1CC(C)CN(CCN(Cc2ccccc2Cl)C(=O)c2cc(C(F)(F)F)n[nH]2)C1 (centres unmarked) : 46

---

// Max. Resp. (%) lookup, one value per entry
# tested-target: PKM2 (Homo sapiens, UniProt P14618)
# assay-notes: PKM2 activation biochemical assay (AC50 / max. response vs fructose 1,6-bisphosphate)
# experimental-conditions: % maximum response in a biochemical assay as compared with Fructose 1,6-bisphosphate
Report the value in % with no unit label.

// solved cases for Max. Resp. (%) follow
| compound | tested-target | recorded-number |
| --- | --- | --- |
| O=C(c1cc(C(F)(F)F)n[nH]1)N(CCC1CCOC1)Cc1c(Cl)cccc1Cl (stereo not drawn) | PKM2 (Homo sapiens, UniProt P14618) | 81 |
| O=C(c1cc(C(F)(F)F)n[nH]1)N(CCC1CCS(=O)(=O)C1)Cc1ncccc1Cl (stereo not drawn) | PKM2 (Homo sapiens, UniProt P14618) | 74 |
| O=C(CCSC(=S)NCc1cccnc1)c1ccc([N+](=O)[O-])cc1 | PKM2 (Homo sapiens, UniProt P14618) | 49 |

Briefly, Max. Resp. (%) measured for O=C(c1cc(C(F)(F)F)n[nH]1)N(CCN1CCCCCC1)Cc1cccc([N+](=O)[O-])c1Cl : 100

Briefly, Max. Resp. (%) measured for O=C(CCSC(=S)NCc1cccnc1)c1ccc[nH]1 : 126

Briefly, Max. Resp. (%) measured for O=C(c1cc(C(F)(F)F)n[nH]1)N(CCN1CCCC1)Cc1ccccc1F : 100

Briefly, Max. Resp. (%) measured for O=C(c1cc(C(F)(F)F)n[nH]1)N(Cc1cccc2[nH]c(=O)sc12)CC1CCC1 : 87

Briefly, Max. Resp. (%) measured for O=C(c1cc(C(F)(F)F)n[nH]1)N(Cc1ccc(O)cc1F)C1CCCCC1 : 100

Briefly, Max. Resp. (%) measured for O=C(c1cc(Br)n[nH]1)N(Cc1ccc(O)cc1Cl)CC1CCC1 : 100

---

# tested-target: PKM2 (Homo sapiens, UniProt P14618)
# assay-notes: PKM2 activation biochemical assay (AC50 / max. response vs fructose 1,6-bisphosphate)
# experimental-conditions: biochemical assay; read-out: PKM2 AC50
Binarize AC50 at 300 nM; below is met, at or above is not met.

Answered examples (5):
| compound | qualitative-label |
| --- | --- |
| O=C(c1cc(C(F)(F)F)n[nH]1)N(CCC1CCOCC1)Cc1ccccc1Cl | not met |
| CCCCCN(Cc1ccccc1F)C(=O)c1cc(C(F)(F)F)n[nH]1 | met |
| Cc1csc2nc(Cn3cnc4ccccc43)cc(=O)n12 | met |
| CCc1ccc(C)n2c(=O)cc(Cn3cnc4ccccc43)nc12 | met |
| CC(c1ccccc1)N(CC1CCC1)C(=O)c1cc(N)n[nH]1 (stereo not shown) | not met |

Prompt: A record lists O=C(CCSC(=S)NCc1cccnc1)c1ccco1 . Is its AC50 below 300 nM?
Response: not met

---

# tested-target: PKM2 (Homo sapiens)
# assay-notes: PKM2 activation biochemical assay (AC50 / max. response vs fructose 1,6-bisphosphate)
# experimental-conditions: % maximum response in a biochemical assay as compared with Fructose 1,6-bisphosphate
// Max. Resp. (%) lookup, one value per entry
Report the value in % with no unit label.

| molecule | Max. Resp. (%) |
| --- | --- |
| COc1ccc(N)cc1CN(CCN1CCCCCC1)C(=O)c1cc(C(F)(F)F)n[nH]1 [Compound 215] | 100 |

Briefly, Max. Resp. (%) measured for CCNCCN(Cc1ccccc1F)C(=O)c1cc(C(F)(F)F)n[nH]1 [Compound 155] : 100

Briefly, Max. Resp. (%) measured for CCCCCN(Cc1ccccc1)C(=O)c1cc(C(F)(F)F)n[nH]1 [Compound 19] : 76

---

# tested-target: PKM2 (Homo sapiens, UniProt P14618)
# assay-notes: PKM2 activation biochemical assay (AC50 / max. response vs fructose 1,6-bisphosphate)
# experimental-conditions: biochemical assay; read-out: PKM2 AC50
// AC50 lookup, one value per entry

// solved cases for AC50 follow
| compound | AC50 |
| --- | --- |
| O=C(c1cc(C(F)(F)F)n[nH]1)N(CCN1CCCC1)Cc1cccc2[nH]ccc12 | 113 nM |
| O=C(c1cc(C(F)(F)F)n[nH]1)N(Cc1cn[nH]c1)Cc1cccc2[nH]cnc12 | 25000 nM |
| O=C(CCSC(=S)NCc1cccnc1)c1ccc[nH]1 | > 20000 nM |
| O=C(CCSC(=S)NCc1cccnc1)c1ccc(Cl)cc1 | > 20000 nM |
| CCC1CCN(CCN(Cc2ccccc2Cl)C(=O)c2cc(C(F)(F)F)n[nH]2)CC1 | 100 nM |

Briefly, AC50 measured for O=C(c1cc(C(F)(F)F)n[nH]1)N(CCC1CCSCC1)Cc1ccc(O)cc1F : 93 nM

Briefly, AC50 measured for CCN(CC)CCN(Cc1ccccc1Cl)C(=O)c1cc(C(F)(F)F)n[nH]1 : 73 nM

Briefly, AC50 measured for O=C(c1cc(C(F)(F)F)n[nH]1)N(Cc1ccccc1F)CC1CCS(=O)(=O)CC1 : 10200 nM

Briefly, AC50 measured for O=C(c1cc(C(F)(F)F)n[nH]1)N(CCN1CCOCC1)Cc1ccccc1Cl : 1490 nM

Briefly, AC50 measured for O=C(c1cc(Br)n[nH]1)N(Cc1cccc2[nH]c(=O)sc12)CC1CCC1 : 2740 nM

Briefly, AC50 measured for O=C1CCC(CCN(Cc2ccccc2F)C(=O)c2cc(C(F)(F)F)n[nH]2)CC1 : 101 nM

Briefly, AC50 measured for O=C(c1cc(C(F)(F)F)n[nH]1)N(CCN1CCCCCC1)Cc1ccccc1Cl : 24 nM

Briefly, AC50 measured for O=C(c1cc(C(F)(F)F)n[nH]1)N(CCC1CCS(=O)(=O)C1)Cc1c(Cl)cccc1Cl (stereo not drawn) : 3780 nM

Briefly, AC50 measured for O=C(c1cc(C(F)(F)F)n[nH]1)N(Cc1ccccc1F)C1CCCCC1 : 19000 nM

Briefly, AC50 measured for Nc1cccc(Cl)c1CN(CCN1CCS(=O)(=O)CC1)C(=O)c1cc(C(F)(F)F)n[nH]1 : 410 nM

Briefly, AC50 measured for O=C(c1cc(C(F)(F)F)n[nH]1)N(CCC(F)(F)F)Cc1ccc(O)cc1F : 1000 nM

Briefly, AC50 measured for COC1CCN(CCN(Cc2c(N)cccc2Cl)C(=O)c2cc(C(F)(F)F)n[nH]2)C1 (stereo not drawn) : 133 nM

Briefly, AC50 measured for COc1ccccc1C(=O)CCSC(=S)NCc1cccnc1 : 3930 nM

The values you see were collected from patent US20200237766A1.
